System: CD34^+CD38^− cells
Experiment: Expansion of CD34+CD38− cells using cord blood-derived CD34+CD38− cells (Example 6)
Format: cell-based, human
Conditions: 1 μg/mL compound, CD34+CD38− starting cells, 50 ng/mL SCF, 7 days; based on number of CD34+CD38− cells in the presence of 10 ng/mL TPO
observable: Expansion efficiency
// no unit, no text: just the number

Recorded Expansion efficiency, per entry:
{"smiles_data": "C/C(=N\\NC(=O)c1ccc(C(=O)Nc2cscn2)s1)c1csc(-c2ccc(Br)cc2)c1O", "test_system": "CD34^+CD38^− cells", "Expansion efficiency": 1.4}
{"smiles_data": "C/C(=N\\NC(=O)c1ccc(C(=O)NCc2cn(C)cn2)s1)c1csc(-c2ccc(Cl)c(Cl)c2)c1O", "test_system": "CD34^+CD38^− cells", "Expansion efficiency": 1.9}
{"smiles_data": "C/C(=N\\NC(=O)c1ccc(C(=O)NCc2ccc(C(N)=O)cc2)s1)c1csc(-c2ccc(Cl)c(Cl)c2)c1O", "test_system": "CD34^+CD38^− cells", "Expansion efficiency": 1.9}

Now for another entry.
Input line: # query: Expansion efficiency | item C/C(=N\NC(=O)c1ccc(C(=O)NCc2cc(C)n(C)n2)s1)c1csc(-c2ccc(Cl)c(Cl)c2)c1O | system: CD34^+CD38^− cells
Output line: 2.7

meta.source: patent US9527828B2
